System: HCT116 (MTAP del) cell line
Assay: Cell proliferation inhibition in MTAP-deficient cancer cells, WST-1 assay
Type: cell-based
Conditions: Homo sapiens, HCT-116, 120 hours of drug treatment, maximum concentration 10 µM, read-out: HCT116 MTAP^-/- (IC50, cell proliferation inhibited by 50%)
pIC50: −log10 of the molar value.
READOUT_NAME: pIC50

>  <COMPOUND_STRING>
Cc1c(F)cccc1-n1c(=O)c2nccn2c2ccc(Cl)cc21

>  <TEST_TARGET>
HCT116 (MTAP del) cell line

>  <TEST_VALUE>
6.00 to 7.00

$$$$
>  <COMPOUND_STRING>
Cc1c(F)cccc1-n1c(=O)c2nccn2c2ccc(C(F)(F)F)cc21

>  <TEST_TARGET>
HCT116 (MTAP del) cell line

>  <TEST_VALUE>
7.00 to 9.00

$$$$
>  <COMPOUND_STRING>
O=c1c2nccn2c2cc(Cl)c(Br)cc2n1-c1cccnc1C1CC1

>  <TEST_TARGET>
HCT116 (MTAP del) cell line

>  <TEST_VALUE>
7.00 to 9.00

$$$$
>  <COMPOUND_STRING>
CC(=O)c1ccc2c(c1)n(-c1ccccc1C)c(=O)c1nccn12

>  <TEST_TARGET>
HCT116 (MTAP del) cell line

>  <TEST_VALUE>
< 5.00

$$$$
>  <COMPOUND_STRING>
Cc1ncccc1-n1c(=O)c2ncc(Br)n2c2ccc(C(F)(F)F)cc21

>  <TEST_TARGET>
HCT116 (MTAP del) cell line

>  <TEST_VALUE>
7.00 to 9.00

$$$$
>  <COMPOUND_STRING>
COc1ncccc1-n1c(=O)c2nccn2c2cc(Cl)c(Br)cc21

>  <TEST_TARGET>
HCT116 (MTAP del) cell line

>  <TEST_VALUE>
< 5.00

$$$$

====

Test system: HCT116 (MTAP del) cell line
Assay: Cell proliferation inhibition in MTAP-deficient cancer cells, WST-1 assay
Type: cell-based
Conditions: Homo sapiens, HCT-116, 120 hours of drug treatment, maximum concentration 10 µM, read-out: HCT116 MTAP^-/- (IC50, cell proliferation inhibited by 50%)

>  <COMPOUND>
Cc1ncccc1-n1c(=O)c2nccn2c2cc(Cl)c(Br)cc21 [Example 79]

>  <IC50>
1 to 100 nM

$$$$
>  <COMPOUND>
Cc1c(Cl)cccc1-n1c(=O)c2nccn2c2ccc(Cl)cc21 [Example 11]

>  <IC50>
1 to 100 nM

$$$$
>  <COMPOUND>
O=c1c2nccn2c2ccc(Cl)cc2n1-c1cccnc1Cl [Example 54]

>  <IC50>
1 to 100 nM

$$$$
>  <COMPOUND>
Cc1ncccc1-n1c(=O)c2ncc(C)n2c2cc(Cl)c(Br)cc21 [Example 86]

>  <IC50>
100 to 1000 nM

$$$$
>  <COMPOUND>
O=c1c2nccn2c2ccc(Cl)cc2n1-c1ccccc1Cl [Example 23]

>  <IC50>
100 to 1000 nM

$$$$
>  <COMPOUND>
O=c1c2nccn2c2ccc(C(F)(F)F)cc2n1-c1cccc2c1CCO2 [Example 65]

>  <IC50>
1 to 100 nM

$$$$

====

Listed here: compounds with reported pIC50 for MAT2A (Homo sapiens, UniProt P31153).
pIC50: −log10 of the molar value.
READOUT_NAME: pIC50

>  <COMPOUND_STRING>
Cc1c(F)cccc1-n1c(=O)c2nccn2c2ccc(OC(F)(F)F)cc21

>  <TEST_VALUE>
5.00 to 6.00

$$$$
>  <COMPOUND_STRING>
N#Cc1ccccc1-n1c(=O)c2nccn2c2ccc(Cl)cc21

>  <TEST_VALUE>
< 5.00

$$$$
>  <COMPOUND_STRING>
Cn1nccc1-n1c(=O)c2nccn2c2cc(Cl)c(Br)cc21

>  <TEST_VALUE>
5.00 to 6.00

$$$$
>  <COMPOUND_STRING>
Cc1cc(F)ccc1-n1c(=O)c2nccn2c2ccc(Cl)cc21

>  <TEST_VALUE>
5.00 to 6.00

$$$$

====

Reported IC50 values are given for each entry in this list.
System: HCT116 (MTAP del) cell line
Experiment: Cell proliferation inhibition in MTAP-deficient cancer cells, WST-1 assay
Format: cell-based
Details: Homo sapiens, HCT-116, 120 hours of drug treatment, maximum concentration 10 µM, read-out: HCT116 MTAP^-/- (IC50, cell proliferation inhibited by 50%)
READOUT_NAME: IC50

>  <COMPOUND_STRING>
O=c1c2nccn2c2cc(Cl)c(Br)cc2n1-c1cccc2[nH]ccc12

>  <READOUT_NAME>
IC50

>  <TEST_VALUE>
0.1 to 1 µM

$$$$
>  <COMPOUND_STRING>
Cc1ccc2c(n1)n(-c1ccccc1C)c(=O)c1nccn12

>  <READOUT_NAME>
IC50

>  <TEST_VALUE>
0.1 to 1 µM

$$$$
>  <COMPOUND_STRING>
Cc1c(F)cccc1-n1c(=O)c2nccn2c2ccc(C#N)cc21

>  <READOUT_NAME>
IC50

>  <TEST_VALUE>
0.1 to 1 µM

$$$$
>  <COMPOUND_STRING>
Cc1ccc(F)cc1-n1c(=O)c2nccn2c2ccc(Cl)cc21

>  <READOUT_NAME>
IC50

>  <TEST_VALUE>
> 10 µM

$$$$
>  <COMPOUND_STRING>
Cc1ncccc1-n1c(=O)c2ncc(C)n2c2c(Br)c(C)c(Br)cc21

>  <READOUT_NAME>
IC50

>  <TEST_VALUE>
0.001 to 0.1 µM

$$$$
>  <COMPOUND_STRING>
Cc1cc2c(cc1Br)n(-c1cccnc1C)c(=O)c1nccn12

>  <READOUT_NAME>
IC50

>  <TEST_VALUE>
0.001 to 0.1 µM

$$$$

====

Test system: HCT116 (MTAP del) cell line
Test: Cell proliferation inhibition in MTAP-deficient cancer cells, WST-1 assay
Assay type: cell-based
Conditions: Homo sapiens, HCT-116, 120 hours of drug treatment, maximum concentration 10 µM, read-out: HCT116 MTAP^-/- (IC50, cell proliferation inhibited by 50%)
pIC50: −log10 of the molar value.
READOUT_NAME: pIC50

>  <COMPOUND_STRING>
O=c1c2nccn2c2cc(Cl)c(Br)cc2n1-c1cccc2ncsc12

>  <TEST_TARGET>
HCT116 (MTAP del) cell line

>  <READOUT_NAME>
pIC50

>  <TEST_VALUE>
6.00 to 7.00

$$$$
>  <COMPOUND_STRING>
O=c1c2nccn2c2ccc(Cl)cc2n1-c1ccccc1Br

>  <TEST_TARGET>
HCT116 (MTAP del) cell line

>  <READOUT_NAME>
pIC50

>  <TEST_VALUE>
7.00 to 9.00

$$$$
>  <COMPOUND_STRING>
Cc1cccc(F)c1-n1c(=O)c2nccn2c2ccc(Cl)cc21

>  <TEST_TARGET>
HCT116 (MTAP del) cell line

>  <READOUT_NAME>
pIC50

>  <TEST_VALUE>
5.00 to 6.00

$$$$
>  <COMPOUND_STRING>
Cc1c(F)cccc1-n1c(=O)c2nccn2c2ccc(OC(F)(F)F)cc21

>  <TEST_TARGET>
HCT116 (MTAP del) cell line

>  <READOUT_NAME>
pIC50

>  <TEST_VALUE>
6.00 to 7.00

$$$$
>  <COMPOUND_STRING>
Cc1ccccc1-n1c(=O)c2nccn2c2ccc(C(F)(F)F)nc21

>  <TEST_TARGET>
HCT116 (MTAP del) cell line

>  <READOUT_NAME>
pIC50

>  <TEST_VALUE>
6.00 to 7.00

$$$$
>  <COMPOUND_STRING>
Cc1ncccc1-n1c(=O)c2nccn2c2c(OCC3CC3)cc(Cl)cc21

>  <TEST_TARGET>
HCT116 (MTAP del) cell line

>  <READOUT_NAME>
pIC50

>  <TEST_VALUE>
7.00 to 9.00

$$$$
